Attribution: paper PMC6826492

tested on: HCT 116 (colon carcinoma); assay: Antiproliferative activity in vitro (MTT assay); type: cell-based, human; conditions: Homo sapiens, HCT-116, 72 h, 72 h incubation, concentration that causes 50% growth inhibition, read-out: IC50 HCT116
experimental.endpoint: IC50 (µM)
Answer in µM, number only, no unit symbol.

Query: Name the recorded IC50 of the compound listed here: COc1ccc(C(=O)Nc2nc3ccc(N)cc3[nH]2)c(O)c1
Result: 37

Query: Name the recorded IC50 of the compound listed here: COc1ccc(C(=O)Nc2nc3ccc([N+](=O)[O-])cc3s2)c(OC)c1
Result: 9

Query: Name the recorded IC50 of the compound listed here: COc1ccccc1C(=O)Nc1nc2ccc(N)cc2[nH]1
Result: 48

----------
assay: DFT calculation of bond dissociation and ionization energies; conditions: difference to M1
Attribute: BDE lower than BDE (M1)
Answer in kcal/mol, number only, no unit symbol.

Consider the worked cases shown below.
# substance.smiles, numeric.value
data = [
    ("O=C(Nc1nc2ccccc2s1)c1ccc(O)cc1", 4.8),
    ("COc1ccc(C(=O)Nc2nc3ccccc3s2)cc1", 0.5),
    ("O=C(NC1=Nc2ccccc2C1)c1ccccc1", 10.1),
]

// switching to the query molecule
Query: Name the recorded BDE lower than BDE (M1) of the molecule listed here: Nc1ccc2nc(NC(=O)c3ccccc3)sc2c1
Result: 7.1

----------
tested on: HCT 116 (colon carcinoma); test: Antiproliferative activity in vitro (MTT assay); type: cell-based, human; conditions: Homo sapiens, HCT-116, 72 h, 72 h incubation, concentration that causes 50% growth inhibition, read-out: IC50 HCT116
experimental.endpoint: IC50

Consider the worked cases shown below.
# compound, experimental.endpoint, result
measured = [
    ("COc1ccccc1C(=O)Nc1nc2ccc([N+](=O)[O-])cc2s1", "IC50", "44 µM"),
    ("COc1cc(C(=O)Nc2nc3ccc([N+](=O)[O-])cc3[nH]2)cc(OC)c1OC", "IC50", "0.6 µM"),
]

Query: Please look at COc1cc([C@@H]2c3cc4c(cc3[C@@H](O[C@@H]3O[C@@H]5CO[C@@H](C)O[C@H]5[C@H](O)[C@H]3O)[C@H]3COC(=O)[C@H]23)OCO4)cc(OC)c1O [Etoposide, reference compound] and tell me its recorded IC50 on HCT 116 (colon carcinoma).
Result: 5 µM

Query: Please look at COc1ccc(C(=O)Nc2nc3ccc(N)cc3s2)c(OC)c1 and tell me its recorded IC50 on HCT 116 (colon carcinoma).
Result: 6 µM

Query: Please look at COc1ccc(C(=O)Nc2nc3ccc([N+](=O)[O-])cc3[nH]2)c(OC)c1 and tell me its recorded IC50 on HCT 116 (colon carcinoma).
Result: 3 µM

Query: Please look at COc1ccccc1C(=O)Nc1nc2ccc([N+](=O)[O-])cc2[nH]1 and tell me its recorded IC50 on HCT 116 (colon carcinoma).
Result: 6 µM

Query: Please look at COc1cc(C(=O)Nc2nc3ccc([N+](=O)[O-])cc3s2)cc(OC)c1OC and tell me its recorded IC50 on HCT 116 (colon carcinoma).
Result: 37 µM

----------
Assay: Ferric reducing/antioxidant power (FRAP assay)
Format: biochemical
Details: means ± standard deviation; absorbance at 593 nm
Protocol: The FRAP method was carried out according to previously described procedures with some modifications to be compatible with an assay on a 96-well microplate. All tests were done in triplicate, while the obtained results were averaged and reported as Fe^2+ equivalents (Fe^2+ µmol). By using the FRAP assay, we investigated the reducing power of investigated systems, which was monitored by the corresponding changes in the absorbance at 593 nm. […]
experimental.endpoint: log10 of FRAP (log10 of the value in mmolFe^2+/mmolC)
In our notation, the value equals log10 of FRAP in mmolFe^2+/mmolC.

# compound, log10 of FRAP
records = [
    ("Nc1ccc2nc(NC(=O)c3ccccc3O)[nH]c2c1", 2.44),
]

Query: Name the recorded log10 of FRAP of the compound listed here: COc1c(O)cc(C(=O)Nc2nc3ccc([N+](=O)[O-])cc3[nH]2)cc1O
Result: 2.39

Query: Name the recorded log10 of FRAP of the compound listed here: COc1ccccc1C(=O)Nc1nc2ccc(N)cc2s1
Result: 2.21

Query: Name the recorded log10 of FRAP of the compound listed here: Cc1cc(C(C)(C)C)c(O)c(C(C)(C)C)c1 [BHT, butylated hydroxytoluene, reference compound]
Result: 3.32

Query: Name the recorded log10 of FRAP of the compound listed here: COc1cc(C(=O)Nc2nc3cc(N)ccc3[nH]2)cc(OC)c1OC.Cl
Result: 2.43

Query: Name the recorded log10 of FRAP of the compound listed here: COc1ccccc1C(=O)Nc1nc2ccc(N)cc2[nH]1 [Compound 18]
Result: 2.43

Query: Name the recorded log10 of FRAP of the compound listed here: COc1ccc(C(=O)Nc2nc3ccc([N+](=O)[O-])cc3s2)c(O)c1
Result: 1.60

Query: Name the recorded log10 of FRAP of the compound listed here: O=C(Nc1nc2ccc([N+](=O)[O-])cc2[nH]1)c1ccccc1O
Result: 1.59

Query: Name the recorded log10 of FRAP of the compound listed here: COc1cc(C(=O)Nc2nc3ccc([N+](=O)[O-])cc3s2)cc(OC)c1OC
Result: 2.19
